assay: acute toxicity estimated on mice (method of MILLER and TAINTER); settings: mouse, in vivo, iv
quantity_measured: LD50 (mg/kg)
Report as a plain number; the unit mg/kg is understood.

// known answers, use as guide
[
  {
    "compound": "COc1ccc(OC)c(C(O)CCc2cccc(O)c2)c1OCCN1CCCCC1 (stereo not shown)",
    "quantity_measured": "LD50",
    "experimental_result": 11
  },
  {
    "compound": "COc1ccc(OC)c(C(O)CCc2ccccc2)c1OCCN1CCCCC1 (stereo not shown)",
    "quantity_measured": "LD50",
    "experimental_result": 16
  },
  {
    "compound": "COc1cc(Cl)c(OC)c(OCCN2CCCCC2)c1C(O)CCc1ccc(O)cc1 (stereo not shown)",
    "quantity_measured": "LD50",
    "experimental_result": 8.6
  },
  {
    "compound": "COc1cc(OC)c(C(O)CCc2ccc(O)cc2)c(OCCN2CCCCC2)c1OC (stereo not shown)",
    "quantity_measured": "LD50",
    "experimental_result": 33
  },
  {
    "compound": "COc1ccc(OC)c(C(O)CCc2ccc(C)cc2)c1OCCN1CCCCC1 (stereo not shown)",
    "quantity_measured": "LD50",
    "experimental_result": 31
  }
]

Item: COc1ccc(OC)c(C(O)CCc2ccc(O)cc2)c1OCCN1CCCC1 (stereo not shown) | LD50: 27

Lab book: LD50 of COc1cc(Cl)c(OC)c(C(O)CCc2ccc(O)cc2)c1OCCN1CCCCC1 (stereo not shown) noted as 11.7

LD50 for CCN(CC)CCOc1c(OC)ccc(OC)c1C(O)CCc1ccc(O)cc1 (stereo not shown) is 23

The compound listed as COc1ccc(OC)c(C(O)CCc2ccc(F)cc2)c1OCCN1CCCCC1 (stereo not shown) has a reported LD50 of 31

Entry CC(C)(Cc1ccc(O)cc1)C(O)c1ccccc1OCCN1CCCCC1 (stereo not shown) ; LD50 = 43

The compound identified as COc1ccc(OC)c(C(O)CCc2ccc(O)cc2)c1OCCCN1CCCCC1 (stereo not shown) registered its LD50 at 22

Looking up COc1ccc(CCC(O)c2c(OC)ccc(OC)c2OCCN2CCCCC2)cc1 (stereo not shown) , I found its LD50 recorded as 27

LD50 reported for this compound COc1ccc(OC)c(C(O)CCc2ccccc2O)c1OCCN1CCCCC1 (stereo not shown) : 12

Given item COc1ccc(OC)c(C(O)CCc2ccc(O)cc2)c1OCCN1CCCCC1 (stereo not shown) , the value recorded as its LD50 is 20

The compound listed as CCN(CC)CCOc1c(OC)c(Cl)cc(OC)c1C(O)CCc1ccc(O)cc1 (stereo not shown) has a reported LD50 of 14

The reported LD50 of the compound COc1ccc(OC)c(C(O)CCc2ccc(Cl)cc2)c1OCCN1CCCCC1 (stereo not shown) was 33

----------
assay: acute toxicity estimated on mice (method of MILLER and TAINTER); details: mouse, in vivo, iv
LD50 overview

Known LD50 results, listed for orientation:
[
  {
    "compound": "COc1cc(OC)c(CCCc2ccc(O)cc2)c(OCCN2CCCCC2)c1 [compound 60]",
    "LD50": "8.9 mg/kg"
  },
  {
    "compound": "COc1cc([N+](=O)[O-])c(OC)c(C(O)CCc2ccc(O)cc2)c1OCCN1CCCCC1 (centres unmarked) [compound 74]",
    "LD50": "18.6 mg/kg"
  },
  {
    "compound": "COc1c2c(c(OC)c(C(O)CCc3ccc(O)cc3)c1OCCN1CCCCC1)OCCO2 (centres unmarked) [compound 66]",
    "LD50": "15.7 mg/kg"
  }
]

CCCN(CCC)CCOc1c(OC)ccc(OC)c1C(O)CCc1ccc(O)cc1 (centres unmarked) [compound 62] has a reported LD50 of 13 mg/kg

Sample COc1cc(F)c(OC)c(OCCN2CCCCC2)c1C(O)CCc1ccc(O)cc1 (centres unmarked) [compound 72] ; LD50 observed: 3.4 mg/kg

----------
assay: acute toxicity estimated on mice (method of MILLER and TAINTER); settings: mouse, in vivo, iv
quantity_measured: LD50 (mg/kg)
Give just the numeric value; mg/kg need not be written.

[
  {
    "compound": "COc1c(OC)c(OC)c(C(O)CCc2ccc(O)cc2)c(OCCN2CCCCC2)c1OC (stereo not shown)",
    "experimental_result": 32.5
  }
]

Sample COc1cc(Cl)c(OC)c(OCCN(C(C)C)C(C)C)c1C(O)CCc1ccc(O)cc1 (stereo not shown) ; LD50 observed: 11.5

For record COc1c(OCCN2CCCCC2)c(C(O)CCc2ccc(O)cc2)c(OC)c2ccccc12 (stereo not shown) the listed LD50 is 12.3

Lab note: measured LD50 of `COc1ccc(OC)c(C(=O)CCc2ccc(O)cc2)c1OCCN1CCCCC1` was 14
